# tested-target: Muscarinic acetylcholine receptor M3 (Homo sapiens, UniProt P20309)
# Sequence (P20309 whole entry): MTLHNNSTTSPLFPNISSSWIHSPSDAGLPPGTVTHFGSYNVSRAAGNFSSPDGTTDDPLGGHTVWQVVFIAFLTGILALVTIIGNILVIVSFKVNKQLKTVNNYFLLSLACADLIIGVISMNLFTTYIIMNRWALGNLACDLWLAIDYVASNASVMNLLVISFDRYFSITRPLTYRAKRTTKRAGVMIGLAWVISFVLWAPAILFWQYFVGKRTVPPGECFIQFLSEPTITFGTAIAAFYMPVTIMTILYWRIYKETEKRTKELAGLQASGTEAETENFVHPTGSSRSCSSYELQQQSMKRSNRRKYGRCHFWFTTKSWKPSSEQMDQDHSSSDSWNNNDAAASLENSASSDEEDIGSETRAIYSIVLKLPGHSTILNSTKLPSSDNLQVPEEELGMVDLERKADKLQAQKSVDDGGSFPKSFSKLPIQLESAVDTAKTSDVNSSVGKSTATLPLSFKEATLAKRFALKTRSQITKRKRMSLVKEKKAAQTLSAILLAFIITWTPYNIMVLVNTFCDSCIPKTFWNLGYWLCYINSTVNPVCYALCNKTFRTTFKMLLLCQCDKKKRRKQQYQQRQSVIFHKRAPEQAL
pKi: −log10 of the molar value.
measured-quantity: pKi

Value lookup for pKi; key = CN1CCC2C(C1)c1cccc3c1N2c1ccccc1CS3 (stereo unspecified)
< 6.00

* * *

# tested-target: UniProt:P14416
# Sequence (P14416 whole entry): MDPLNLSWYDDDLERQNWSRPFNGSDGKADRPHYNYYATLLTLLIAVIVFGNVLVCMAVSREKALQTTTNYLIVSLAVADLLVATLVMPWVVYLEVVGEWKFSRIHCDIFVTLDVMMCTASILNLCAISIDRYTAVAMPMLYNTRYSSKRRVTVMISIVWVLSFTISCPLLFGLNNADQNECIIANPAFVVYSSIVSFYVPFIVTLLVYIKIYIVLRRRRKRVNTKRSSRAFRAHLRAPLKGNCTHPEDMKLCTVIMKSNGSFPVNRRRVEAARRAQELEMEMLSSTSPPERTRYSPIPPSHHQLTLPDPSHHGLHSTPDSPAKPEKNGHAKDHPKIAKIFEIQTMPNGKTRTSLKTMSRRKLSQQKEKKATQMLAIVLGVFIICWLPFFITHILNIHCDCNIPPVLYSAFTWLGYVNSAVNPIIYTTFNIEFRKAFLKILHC
measured-quantity: pKi
// scale note: pKi = -log10(conc_M); give the bare number

So what does the record say about pKi for CN1CCC2C(C1)c1cccc3c1N2c1ccccc1CS3 (stereo unspecified) ?
6.90

* * *

# tested-target: Muscarinic acetylcholine receptor M4 (Homo sapiens, UniProt P08173)
# Sequence (P08173 whole entry): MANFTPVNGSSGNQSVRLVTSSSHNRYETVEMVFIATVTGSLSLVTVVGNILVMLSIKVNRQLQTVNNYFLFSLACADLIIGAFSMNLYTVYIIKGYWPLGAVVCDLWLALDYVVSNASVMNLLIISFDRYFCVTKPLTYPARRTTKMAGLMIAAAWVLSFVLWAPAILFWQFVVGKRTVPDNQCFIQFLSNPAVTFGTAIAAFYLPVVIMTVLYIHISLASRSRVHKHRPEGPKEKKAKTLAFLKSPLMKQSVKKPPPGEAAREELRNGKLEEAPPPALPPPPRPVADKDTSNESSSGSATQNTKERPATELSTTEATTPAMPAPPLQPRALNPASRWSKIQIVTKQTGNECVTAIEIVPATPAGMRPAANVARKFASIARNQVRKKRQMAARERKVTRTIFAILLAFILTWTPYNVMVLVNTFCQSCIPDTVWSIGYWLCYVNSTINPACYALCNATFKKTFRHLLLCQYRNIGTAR
pKi: −log10 of the molar value.
measured-quantity: pKi

Fill in: pKi of CN1CCC2C(C1)c1cccc3c1N2c1ccccc1CS3 (stereo unspecified) is ___
< 6.00

* * *

# tested-target: 5-hydroxytryptamine receptor 4 (Homo sapiens)
# Sequence (Q13639 whole entry): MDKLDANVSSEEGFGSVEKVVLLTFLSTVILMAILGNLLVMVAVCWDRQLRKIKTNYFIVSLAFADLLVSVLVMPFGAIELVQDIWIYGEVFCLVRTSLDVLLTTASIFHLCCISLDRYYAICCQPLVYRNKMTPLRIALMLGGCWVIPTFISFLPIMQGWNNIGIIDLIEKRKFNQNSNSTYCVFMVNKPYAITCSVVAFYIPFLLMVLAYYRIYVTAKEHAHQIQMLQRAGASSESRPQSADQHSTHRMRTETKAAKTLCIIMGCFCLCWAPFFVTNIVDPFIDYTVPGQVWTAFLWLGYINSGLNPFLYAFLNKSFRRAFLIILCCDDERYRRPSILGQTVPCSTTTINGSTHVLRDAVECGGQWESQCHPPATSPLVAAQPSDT
pKi: −log10 of the molar value.
measured-quantity: pKi

Please look up its pKi: CN1CCC2C(C1)c1cccc3c1N2c1ccccc1CS3 (stereo unspecified)
< 6.00

* * *

# tested-target: Alpha-2A adrenergic receptor (Homo sapiens, UniProt P08913)
# Sequence (P08913 whole entry): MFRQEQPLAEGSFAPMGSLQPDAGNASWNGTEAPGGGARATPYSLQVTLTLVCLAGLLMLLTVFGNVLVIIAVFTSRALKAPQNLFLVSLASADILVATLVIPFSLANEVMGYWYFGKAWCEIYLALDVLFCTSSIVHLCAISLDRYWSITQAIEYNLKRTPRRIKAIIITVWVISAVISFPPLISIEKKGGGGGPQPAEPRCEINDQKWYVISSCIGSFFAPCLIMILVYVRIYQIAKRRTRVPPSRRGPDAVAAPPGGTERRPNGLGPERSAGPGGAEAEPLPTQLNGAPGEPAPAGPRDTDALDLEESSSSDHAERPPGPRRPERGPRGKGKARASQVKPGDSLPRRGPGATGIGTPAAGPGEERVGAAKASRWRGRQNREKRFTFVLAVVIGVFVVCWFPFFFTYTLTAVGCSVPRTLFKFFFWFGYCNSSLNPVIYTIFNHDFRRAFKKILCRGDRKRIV
measured-quantity: Ki (nM)
Give just the number in nM; leave the unit off.

Name the recorded Ki for CN1CCC2C(C1)c1cccc3c1N2c1ccccc1CS3 (stereo unspecified) .
63.1

* * *

# tested-target: 5-hydroxytryptamine receptor 1E (Homo sapiens, UniProt P28566)
# Sequence (P28566 whole entry): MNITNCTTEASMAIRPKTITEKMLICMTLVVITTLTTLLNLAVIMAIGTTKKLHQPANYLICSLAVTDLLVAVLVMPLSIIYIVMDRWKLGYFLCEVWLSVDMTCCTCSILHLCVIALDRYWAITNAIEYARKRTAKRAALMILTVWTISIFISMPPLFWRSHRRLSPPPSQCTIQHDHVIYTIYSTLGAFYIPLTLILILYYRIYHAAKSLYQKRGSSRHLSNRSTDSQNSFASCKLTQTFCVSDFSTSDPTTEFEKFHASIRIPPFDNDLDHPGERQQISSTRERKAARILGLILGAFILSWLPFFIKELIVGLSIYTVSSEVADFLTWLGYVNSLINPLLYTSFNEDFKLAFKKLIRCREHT
measured-quantity: pKi
On this scale, pKi is minus log10 of a concentration expressed in M (mol/L).

Bench note: what pKi did CN1CCC2C(C1)c1cccc3c1N2c1ccccc1CS3 (stereo unspecified) show?
5.60

* * *

Task for the reader: assign each of the following compounds its reported Ki.
# tested-target: 5-hydroxytryptamine receptor 3A (Homo sapiens)
# Sequence (P46098 whole entry): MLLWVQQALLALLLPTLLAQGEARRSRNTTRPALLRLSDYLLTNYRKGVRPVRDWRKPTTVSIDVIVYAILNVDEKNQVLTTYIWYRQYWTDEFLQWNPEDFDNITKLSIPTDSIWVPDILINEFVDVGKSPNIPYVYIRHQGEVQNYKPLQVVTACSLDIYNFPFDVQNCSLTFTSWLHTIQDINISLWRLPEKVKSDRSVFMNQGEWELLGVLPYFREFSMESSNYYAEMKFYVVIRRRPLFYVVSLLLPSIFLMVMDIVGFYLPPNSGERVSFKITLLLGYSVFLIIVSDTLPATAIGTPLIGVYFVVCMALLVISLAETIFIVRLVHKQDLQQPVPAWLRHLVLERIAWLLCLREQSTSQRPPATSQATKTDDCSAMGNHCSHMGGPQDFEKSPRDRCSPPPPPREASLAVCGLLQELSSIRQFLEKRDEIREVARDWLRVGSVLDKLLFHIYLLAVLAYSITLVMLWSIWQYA
Record the value in nM, omitting the unit from your answer.

What measured Ki is associated with Cc1cc2c(s1)Nc1ccccc1N=C2N1CCN(C)CC1 [OLANZAPINE] on 5-hydroxytryptamine receptor 3A (Homo sapiens)?
1000

Can you handle CN1CCC2C(C1)c1cccc3c1N2c1ccccc1CS3 (configuration not stated) next?
631

* * *

# tested-target: 5-hydroxytryptamine receptor 1B (Homo sapiens)
# Sequence (P28222 whole entry): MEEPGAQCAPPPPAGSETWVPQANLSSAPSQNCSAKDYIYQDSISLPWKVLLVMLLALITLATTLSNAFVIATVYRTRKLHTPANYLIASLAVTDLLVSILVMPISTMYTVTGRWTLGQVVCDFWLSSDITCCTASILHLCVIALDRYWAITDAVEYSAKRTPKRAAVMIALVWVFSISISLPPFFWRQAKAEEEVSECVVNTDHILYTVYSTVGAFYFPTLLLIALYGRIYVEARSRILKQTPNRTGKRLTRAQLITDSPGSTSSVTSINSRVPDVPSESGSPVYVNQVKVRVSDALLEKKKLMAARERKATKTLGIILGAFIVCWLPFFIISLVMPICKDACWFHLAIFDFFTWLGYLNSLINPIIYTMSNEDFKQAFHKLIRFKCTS
measured-quantity: pKi
Entry type: numeric. Quantity: pKi, the -log10 of concentration in molar units.

Query (compound): CN1CCC2C(C1)c1cccc3c1N2c1ccccc1CS3 (stereo unspecified) ; field requested: pKi
6.50

* * *

# tested-target: 5-hydroxytryptamine receptor 7 (Homo sapiens, UniProt P34969)
# Sequence (P34969 whole entry): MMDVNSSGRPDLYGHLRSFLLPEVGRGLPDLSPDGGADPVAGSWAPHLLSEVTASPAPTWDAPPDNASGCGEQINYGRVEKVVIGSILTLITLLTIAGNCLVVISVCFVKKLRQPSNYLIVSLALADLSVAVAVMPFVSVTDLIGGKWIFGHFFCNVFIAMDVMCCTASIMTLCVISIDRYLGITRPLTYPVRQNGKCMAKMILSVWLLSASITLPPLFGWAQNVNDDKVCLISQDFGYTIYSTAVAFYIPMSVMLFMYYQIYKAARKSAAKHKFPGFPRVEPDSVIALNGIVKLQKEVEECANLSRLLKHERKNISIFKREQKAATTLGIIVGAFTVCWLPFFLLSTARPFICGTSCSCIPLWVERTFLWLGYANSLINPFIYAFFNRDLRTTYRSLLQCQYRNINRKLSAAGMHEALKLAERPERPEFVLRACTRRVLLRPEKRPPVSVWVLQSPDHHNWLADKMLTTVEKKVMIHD
measured-quantity: Ki (nM)
Could you give me the number in nM? Just the number is fine.

Could you share which Ki value was measured for CN1CCC2C(C1)c1cccc3c1N2c1ccccc1CS3 (stereo unspecified) ?
79.4

* * *

# tested-target: UniProt:P21728
# Sequence (P21728 whole entry): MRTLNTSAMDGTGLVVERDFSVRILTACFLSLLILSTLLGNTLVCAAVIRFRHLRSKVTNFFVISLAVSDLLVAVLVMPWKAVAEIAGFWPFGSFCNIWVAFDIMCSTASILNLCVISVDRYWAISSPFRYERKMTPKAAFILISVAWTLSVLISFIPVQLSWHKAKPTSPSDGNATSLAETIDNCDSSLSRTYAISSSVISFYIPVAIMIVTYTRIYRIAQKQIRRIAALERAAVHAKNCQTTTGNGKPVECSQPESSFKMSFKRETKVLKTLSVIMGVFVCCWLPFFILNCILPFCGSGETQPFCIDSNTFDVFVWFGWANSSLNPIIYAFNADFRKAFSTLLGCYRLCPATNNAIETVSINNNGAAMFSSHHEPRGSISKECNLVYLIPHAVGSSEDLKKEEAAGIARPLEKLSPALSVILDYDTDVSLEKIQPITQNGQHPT
measured-quantity: Ki
The answer consists of two parts: a number and, after it, its unit.

Fill in the recorded Ki for this molecule, with UniProt:P21728 as test system: CN1CCC2C(C1)c1cccc3c1N2c1ccccc1CS3 (stereo unspecified)
25.1 nM

* * *

# tested-target: 5-hydroxytryptamine receptor 1A (Homo sapiens)
# Sequence (P08908 whole entry): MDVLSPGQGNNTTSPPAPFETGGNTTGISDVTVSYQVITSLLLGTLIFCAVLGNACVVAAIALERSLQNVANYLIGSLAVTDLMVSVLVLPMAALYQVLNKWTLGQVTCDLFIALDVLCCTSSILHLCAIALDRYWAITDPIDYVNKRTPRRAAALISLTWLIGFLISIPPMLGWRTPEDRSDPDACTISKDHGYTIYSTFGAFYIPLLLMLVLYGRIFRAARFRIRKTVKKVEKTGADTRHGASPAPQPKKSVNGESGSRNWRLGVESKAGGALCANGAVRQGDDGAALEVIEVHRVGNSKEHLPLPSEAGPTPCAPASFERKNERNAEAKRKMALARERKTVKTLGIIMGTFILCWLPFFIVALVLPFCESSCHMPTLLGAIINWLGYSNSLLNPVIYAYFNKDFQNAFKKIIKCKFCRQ
measured-quantity: Ki (nM)
Kindly provide the numeric value in nM only, without the unit symbol.

Ki for CN1CCC2C(C1)c1cccc3c1N2c1ccccc1CS3 (stereo unspecified) ?
39.8

* * *

# tested-target: 5-hydroxytryptamine receptor 6 (Homo sapiens)
# Sequence (P50406 whole entry): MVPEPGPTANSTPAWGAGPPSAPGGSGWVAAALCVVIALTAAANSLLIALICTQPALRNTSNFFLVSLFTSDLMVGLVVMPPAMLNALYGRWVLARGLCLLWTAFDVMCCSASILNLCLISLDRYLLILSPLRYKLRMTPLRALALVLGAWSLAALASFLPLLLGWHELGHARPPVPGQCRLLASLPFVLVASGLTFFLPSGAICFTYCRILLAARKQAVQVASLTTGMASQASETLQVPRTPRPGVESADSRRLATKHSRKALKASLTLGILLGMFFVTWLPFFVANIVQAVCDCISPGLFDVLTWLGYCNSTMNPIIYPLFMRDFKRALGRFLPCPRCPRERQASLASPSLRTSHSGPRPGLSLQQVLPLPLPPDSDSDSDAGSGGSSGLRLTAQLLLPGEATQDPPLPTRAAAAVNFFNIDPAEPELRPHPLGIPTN
measured-quantity: Ki
# output: numeric value plus its unit

Find the recorded Ki belonging to CN1CCC2C(C1)c1cccc3c1N2c1ccccc1CS3 (stereo unspecified) and report it.
15.8 nM

* * *

# tested-target: 5-hydroxytryptamine receptor 2B (Homo sapiens, UniProt P41595)
# Sequence (P41595 whole entry): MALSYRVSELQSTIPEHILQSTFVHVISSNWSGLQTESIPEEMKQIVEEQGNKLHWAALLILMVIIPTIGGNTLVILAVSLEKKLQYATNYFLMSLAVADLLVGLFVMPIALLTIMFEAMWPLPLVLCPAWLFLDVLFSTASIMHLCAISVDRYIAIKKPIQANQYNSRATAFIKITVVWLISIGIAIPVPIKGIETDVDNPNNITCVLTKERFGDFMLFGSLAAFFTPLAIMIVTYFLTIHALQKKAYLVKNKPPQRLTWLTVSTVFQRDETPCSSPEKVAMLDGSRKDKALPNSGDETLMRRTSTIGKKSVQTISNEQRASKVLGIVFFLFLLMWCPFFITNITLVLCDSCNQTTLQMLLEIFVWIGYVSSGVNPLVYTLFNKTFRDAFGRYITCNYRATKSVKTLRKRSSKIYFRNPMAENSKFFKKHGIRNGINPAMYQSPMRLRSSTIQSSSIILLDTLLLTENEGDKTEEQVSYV
measured-quantity: Ki (nM)
// return numeric value only (unit: nM, not printed)

What value of Ki has been recorded for this entry: CN1CCC2C(C1)c1cccc3c1N2c1ccccc1CS3 (stereo unspecified)
5.01

* * *

# tested-target: UniProt P35368
# Sequence (P35368 whole entry): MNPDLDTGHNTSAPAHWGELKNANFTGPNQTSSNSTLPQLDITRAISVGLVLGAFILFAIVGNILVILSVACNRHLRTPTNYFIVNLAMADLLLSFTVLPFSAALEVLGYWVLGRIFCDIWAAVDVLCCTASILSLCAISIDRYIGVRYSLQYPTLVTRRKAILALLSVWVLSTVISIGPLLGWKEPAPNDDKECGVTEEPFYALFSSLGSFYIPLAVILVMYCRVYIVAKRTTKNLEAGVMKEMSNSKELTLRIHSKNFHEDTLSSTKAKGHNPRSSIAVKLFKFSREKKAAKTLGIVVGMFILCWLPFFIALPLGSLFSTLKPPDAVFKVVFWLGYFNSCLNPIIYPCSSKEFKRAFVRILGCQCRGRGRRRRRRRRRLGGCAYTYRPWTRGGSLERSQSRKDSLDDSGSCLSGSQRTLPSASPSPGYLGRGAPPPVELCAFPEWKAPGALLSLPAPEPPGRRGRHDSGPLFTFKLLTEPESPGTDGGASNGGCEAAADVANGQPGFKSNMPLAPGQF
measured-quantity: Ki

Reported Ki for CN1CCC2C(C1)c1cccc3c1N2c1ccccc1CS3 (stereo unspecified) : what is it?
> 1000 nM

* * *

# tested-target: Muscarinic acetylcholine receptor M2 (Homo sapiens, UniProt P08172)
# Sequence (P08172 whole entry): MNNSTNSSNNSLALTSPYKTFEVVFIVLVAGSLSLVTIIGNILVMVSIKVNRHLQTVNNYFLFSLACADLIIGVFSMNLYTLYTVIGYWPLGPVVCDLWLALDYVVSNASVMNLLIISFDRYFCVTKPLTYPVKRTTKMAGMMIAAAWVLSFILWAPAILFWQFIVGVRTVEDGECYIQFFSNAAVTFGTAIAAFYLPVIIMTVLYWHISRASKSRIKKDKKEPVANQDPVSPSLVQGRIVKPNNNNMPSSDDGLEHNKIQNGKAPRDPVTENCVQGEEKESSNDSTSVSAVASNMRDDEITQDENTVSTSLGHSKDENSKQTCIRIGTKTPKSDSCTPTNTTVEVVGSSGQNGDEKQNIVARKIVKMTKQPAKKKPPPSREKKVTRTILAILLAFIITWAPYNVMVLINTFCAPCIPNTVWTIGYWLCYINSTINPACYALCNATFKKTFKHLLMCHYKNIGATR
measured-quantity: Ki

Please give the measured Ki for this compound: CN1CCC2C(C1)c1cccc3c1N2c1ccccc1CS3 (stereo unspecified)
> 1000 nM
